Value source: ChEMBL document CHEMBL3046726

Test system: MDA-MB-231
Test: Induction of apoptosis in Homo sapiens (human) MDA-MB-231 cells at 100 uM after 72 hr by flow cytometry
Assay type: cell-based
Conditions: mda-mb-231, 72 h

{"COMPOUND": "Nc1nc2c(ncn2COCCO)c(=O)[nH]1 [ACYCLOVIR]", "TARGET UNDER TEST": "MDA-MB-231", "Activity": "Non-toxic"}
{"COMPOUND": "Cc1ccc2cc3c(N)[nH]nc3nc2c1", "TARGET UNDER TEST": "MDA-MB-231", "Activity": "Non-toxic"}
{"COMPOUND": "COc1ccc2cc3c(N)n[nH]c3nc2c1", "TARGET UNDER TEST": "MDA-MB-231", "Activity": "80%"}
{"COMPOUND": "Nc1[nH]nc2nc3ccccc3cc12", "TARGET UNDER TEST": "MDA-MB-231", "Activity": "Non-toxic"}
